Target: T1, PUF4 RNA-binding domain (Saccharomyces cerevisiae, UniProt P25339 537-888)
T1 sequence: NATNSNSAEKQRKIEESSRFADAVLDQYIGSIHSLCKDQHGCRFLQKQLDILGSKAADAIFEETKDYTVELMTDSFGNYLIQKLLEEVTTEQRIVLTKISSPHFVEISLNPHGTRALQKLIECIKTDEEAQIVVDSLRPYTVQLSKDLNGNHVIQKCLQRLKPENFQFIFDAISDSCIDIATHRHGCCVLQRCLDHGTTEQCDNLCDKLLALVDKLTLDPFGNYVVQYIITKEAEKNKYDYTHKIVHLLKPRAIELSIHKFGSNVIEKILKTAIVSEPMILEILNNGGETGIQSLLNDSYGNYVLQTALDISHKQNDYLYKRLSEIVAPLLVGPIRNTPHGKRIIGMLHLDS
Assay: Mg; RNA-MaP; 20 mM Na-HEPES pH 7.4, 30 mM KOAc, 0.75 mM MgCl2, 0.1% Tween-20, 5% glycerol, 0.1 mg/mL BSA, 2 mM DTT; 25 C; 0.0125-409.6 nM protein
Details: tags: N-His6-TEV cleaved; C-SNAP kept, Cy3B-labelled; label: tethered on chip by stalled RNA polymerase
pKd: −log10 of the molar value.

binder	pKd
UCUCUUCGUAUAUAUUAUUUCUCUU (ssRNA) [Id_ii_S1_P4E.3_K4.2_C4.2_[T-1G]_H4.2_A4.1_F4.1_T4.2_[G10T]]	7.66
Id_ii_S2_P3E.3_K3.2_C3.2_[C-2G]_[T-1G]_H3.2_A3.1_F3.1_T3.2_[T9A] (ssRNA) RNA: UUUGAUUAAUAUGAUAUCGUUCUUUCUGGUAUAUAUAAAUUCUUUCUCGAUAUCAUAUUAAUCUUU	6.06
Ic_S2_P3E.1_K3.1_C3.1_H3.1_A3.1_[T5C]_[A6G]_F3.1_T3.1 (ssRNA) RNA: UUUGAUUAAUAUGAUAUCGUUCUUUCUUGUACGUAUUCUUUCUCGAUAUCAUAUUAAUCUUU	7.48

Provenance of the data: paper PMC9352680
